B1: HDV Ribozyme (parent)
chain: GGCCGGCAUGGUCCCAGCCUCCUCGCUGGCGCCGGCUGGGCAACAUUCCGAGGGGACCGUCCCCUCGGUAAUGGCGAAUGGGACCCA

# Variants of: B1
# method: self-cleavage, relative activity (ratio to wild type); higher = more cleavage; co-transcriptional
measure: self-cleavage
Numbers only.

G29C C85G : 0.0978
C7A U37C : 0.719
U27A C61U : 0.997
G28C G76A : 0.106
C48A G74U : 0.38
C18U A42C : 0.185
G55A G82A : 0.324
G25A A77C : 0.0978

For each listed entry, give its self-cleavage.
1. G28A C63U
2. G25U G59C
3. G1C C7A

Response line:
1: 0.107; 2: 0.0997; 3: 0.0405
